Data credit: patent US12054463B2

EXPERIMENTAL_PROTOCOL: log Poct/wat by shake flask method
Type: physicochemical
ASSAY_CONDITIONS: octanol/water

| COMPOUND | logP |
| --- | --- |
| COc1ccc(N(C)c2nc(C)nc3ccccc23)cc1 [[^11C]MPC-6827] | 3.8 |

---

ASSAY_TARGET: 5-HT1E (Homo sapiens, UniProt P28566)
Sequence (P28566 whole entry, species assumed): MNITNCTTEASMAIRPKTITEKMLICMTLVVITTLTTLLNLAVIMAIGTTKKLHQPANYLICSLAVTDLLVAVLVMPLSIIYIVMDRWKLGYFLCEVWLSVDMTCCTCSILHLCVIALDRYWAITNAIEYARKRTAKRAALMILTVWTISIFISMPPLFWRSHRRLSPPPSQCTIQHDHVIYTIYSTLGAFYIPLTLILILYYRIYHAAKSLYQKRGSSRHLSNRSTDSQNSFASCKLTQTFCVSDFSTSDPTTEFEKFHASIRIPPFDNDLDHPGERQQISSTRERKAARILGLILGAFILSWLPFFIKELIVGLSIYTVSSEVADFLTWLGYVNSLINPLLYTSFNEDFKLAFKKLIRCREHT
pKi: −log10 of the molar value.

| CHEMICAL_STRUCTURE | pKi |
| --- | --- |
| COc1ccc(N(C)c2nc(C)nc3ccccc23)cc1 | < 5.00 |

---

ASSAY_TARGET: 5-HT3 (Homo sapiens, UniProt P46098)
Sequence (P46098 24-478): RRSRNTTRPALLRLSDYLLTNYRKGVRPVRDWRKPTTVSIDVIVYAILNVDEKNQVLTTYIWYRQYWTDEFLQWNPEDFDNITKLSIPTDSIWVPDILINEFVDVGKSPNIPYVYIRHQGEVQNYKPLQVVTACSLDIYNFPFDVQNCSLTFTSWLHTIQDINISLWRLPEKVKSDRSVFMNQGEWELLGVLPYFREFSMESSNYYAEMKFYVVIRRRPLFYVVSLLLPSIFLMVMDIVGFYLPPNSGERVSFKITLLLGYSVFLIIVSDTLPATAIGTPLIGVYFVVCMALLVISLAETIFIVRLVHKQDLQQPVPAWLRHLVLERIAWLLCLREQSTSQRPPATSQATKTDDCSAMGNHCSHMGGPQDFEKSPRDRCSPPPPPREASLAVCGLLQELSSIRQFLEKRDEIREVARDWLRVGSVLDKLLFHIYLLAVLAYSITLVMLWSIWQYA
pKi: −log10 of the molar value.

| COMPOUND | pKi |
| --- | --- |
| COc1ccc(N(C)c2nc(C)nc3ccccc23)cc1 [MPC-6827] | < 5.00 |

---

ASSAY_TARGET: NK
EXPERIMENTAL_PROTOCOL: Affinity to brain targets (panel)
ASSAY_CONDITIONS: NK: neurokinin
pKi: −log10 of the molar value.

| MOLECULE | pKi |
| --- | --- |
| COc1ccc(N(C)c2nc(C)nc3ccccc23)cc1 | < 5.00 |
| COc1ccc(N(C)c2ncnc3occ(C)c23)cc1 [HD-800, reference compound] | < 5.00 |
| Cc1nc(N(C)c2ccc(OCCF)cc2)c2c(C)coc2n1 | < 5.00 |
| Cc1nc(N(C)c2ccc(OCCF)cc2)c2ccccc2n1 | < 5.00 |

---

ASSAY_TARGET: 5-HT1B (Homo sapiens)
Sequence (P28222 whole entry, species assumed): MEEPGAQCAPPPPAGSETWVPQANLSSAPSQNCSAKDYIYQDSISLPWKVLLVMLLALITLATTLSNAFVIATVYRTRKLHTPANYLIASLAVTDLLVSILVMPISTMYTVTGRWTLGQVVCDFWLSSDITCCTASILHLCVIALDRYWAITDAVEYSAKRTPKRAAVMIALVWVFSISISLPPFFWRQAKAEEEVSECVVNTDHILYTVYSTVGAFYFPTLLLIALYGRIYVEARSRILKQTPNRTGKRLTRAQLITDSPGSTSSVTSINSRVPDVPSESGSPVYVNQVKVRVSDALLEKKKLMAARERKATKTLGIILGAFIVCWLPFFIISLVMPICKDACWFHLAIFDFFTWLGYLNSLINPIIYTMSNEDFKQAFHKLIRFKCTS
pKi: −log10 of the molar value.

| CHEMICAL_STRUCTURE | pKi |
| --- | --- |
| COc1ccc(N(C)c2nc(C)nc3ccccc23)cc1 | < 5.00 |

---

ASSAY_TARGET: UniProtKB P41143
Sequence (P41143 whole entry): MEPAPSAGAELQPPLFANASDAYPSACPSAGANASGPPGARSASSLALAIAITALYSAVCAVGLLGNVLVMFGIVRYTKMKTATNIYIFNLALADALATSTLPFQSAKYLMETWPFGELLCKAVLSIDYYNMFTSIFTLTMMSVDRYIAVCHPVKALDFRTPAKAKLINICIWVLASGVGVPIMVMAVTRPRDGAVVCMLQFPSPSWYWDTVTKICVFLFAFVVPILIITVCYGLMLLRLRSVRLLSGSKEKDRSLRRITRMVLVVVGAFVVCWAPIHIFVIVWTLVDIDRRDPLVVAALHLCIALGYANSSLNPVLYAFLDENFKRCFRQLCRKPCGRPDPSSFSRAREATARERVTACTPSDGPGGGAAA
EXPERIMENTAL_PROTOCOL: Affinity to brain targets (panel)
ASSAY_CONDITIONS: DOR: delta opioid receptors
pKi: −log10 of the molar value.
MEASURED_ATTRIBUTE: pKi

| MOLECULE | MEASURED_ATTRIBUTE | ENDPOINT_VALUE |
| --- | --- | --- |
| COc1ccc(N(C)c2ncnc3occ(C)c23)cc1 [HD-800, reference compound] | pKi | < 5.00 |
| Cc1nc(N(C)c2ccc(OCCF)cc2)c2c(C)coc2n1 | pKi | < 5.00 |
| Cc1nc(N(C)c2ccc(OCCF)cc2)c2ccccc2n1 | pKi | < 5.00 |

---

ASSAY_TARGET: α2B (Homo sapiens, UniProt P18089)
Sequence (P18089 whole entry): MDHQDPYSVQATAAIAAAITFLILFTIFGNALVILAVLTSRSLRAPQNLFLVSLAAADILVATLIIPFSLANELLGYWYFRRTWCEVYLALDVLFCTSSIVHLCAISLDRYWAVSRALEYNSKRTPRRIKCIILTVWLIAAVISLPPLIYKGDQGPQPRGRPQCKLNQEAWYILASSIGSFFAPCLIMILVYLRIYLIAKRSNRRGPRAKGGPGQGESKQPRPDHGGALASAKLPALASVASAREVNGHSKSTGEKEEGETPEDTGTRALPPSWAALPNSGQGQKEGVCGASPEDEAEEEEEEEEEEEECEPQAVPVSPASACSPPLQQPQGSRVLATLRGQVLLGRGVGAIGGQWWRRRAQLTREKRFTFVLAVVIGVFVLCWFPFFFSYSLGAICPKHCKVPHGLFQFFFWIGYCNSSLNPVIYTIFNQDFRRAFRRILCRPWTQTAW
pKi: −log10 of the molar value.
MEASURED_ATTRIBUTE: pKi

| CHEMICAL_STRUCTURE | ENDPOINT_VALUE |
| --- | --- |
| COc1ccc(N(C)c2nc(C)nc3ccccc23)cc1 | < 5.00 |

---

ASSAY_TARGET: V1-2
EXPERIMENTAL_PROTOCOL: Affinity to brain targets (panel)
ASSAY_CONDITIONS: V1-2: vasopressin

| CHEMICAL_STRUCTURE | Ki |
| --- | --- |
| COc1ccc(N(C)c2nc(C)nc3ccccc23)cc1 | > 10 µM |

---

ASSAY_TARGET: 5-HT1A (Homo sapiens)

| COMPOUND | Ki |
| --- | --- |
| COc1ccc(N(C)c2nc(C)nc3ccccc23)cc1 [MPC-6827] | > 10 µM |

---

ASSAY_TARGET: 5-HT2A (Homo sapiens)
Sequence (P28223 whole entry): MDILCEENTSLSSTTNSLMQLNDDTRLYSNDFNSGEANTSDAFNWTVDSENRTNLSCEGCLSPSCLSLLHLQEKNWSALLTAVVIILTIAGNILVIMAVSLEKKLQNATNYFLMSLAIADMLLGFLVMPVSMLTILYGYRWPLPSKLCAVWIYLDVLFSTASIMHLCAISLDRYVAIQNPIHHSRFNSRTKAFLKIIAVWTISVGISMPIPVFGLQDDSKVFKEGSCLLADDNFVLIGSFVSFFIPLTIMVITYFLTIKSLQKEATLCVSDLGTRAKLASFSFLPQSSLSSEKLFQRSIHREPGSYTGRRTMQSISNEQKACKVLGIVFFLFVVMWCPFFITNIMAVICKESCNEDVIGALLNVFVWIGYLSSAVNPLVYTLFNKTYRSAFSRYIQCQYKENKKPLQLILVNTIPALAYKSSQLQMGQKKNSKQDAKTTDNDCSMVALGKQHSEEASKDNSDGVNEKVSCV

| CHEMICAL_STRUCTURE | Ki |
| --- | --- |
| COc1ccc(N(C)c2nc(C)nc3ccccc23)cc1 | > 10 µM |

---

// reported pKi for each item listed
ASSAY_TARGET: H2 (Homo sapiens, UniProt P25021)
Sequence (P25021 whole entry): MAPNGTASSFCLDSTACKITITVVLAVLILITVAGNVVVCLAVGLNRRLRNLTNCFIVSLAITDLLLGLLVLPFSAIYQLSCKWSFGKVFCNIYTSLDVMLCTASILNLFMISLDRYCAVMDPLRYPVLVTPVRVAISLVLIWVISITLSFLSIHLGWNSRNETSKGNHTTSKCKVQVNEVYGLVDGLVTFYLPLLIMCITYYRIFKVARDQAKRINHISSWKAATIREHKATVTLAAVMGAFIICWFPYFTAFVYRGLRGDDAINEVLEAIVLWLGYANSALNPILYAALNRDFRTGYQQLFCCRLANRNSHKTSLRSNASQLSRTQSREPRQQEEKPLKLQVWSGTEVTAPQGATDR
EXPERIMENTAL_PROTOCOL: Affinity to brain targets (panel)
Format: binding
ASSAY_CONDITIONS: H2: histamine
pKi: −log10 of the molar value.

| COMPOUND | COMPARISON_SYMBOL | pKi |
| --- | --- | --- |
| COc1ccc(N(C)c2nc(C)nc3ccccc23)cc1 | = | 6.81 |
| Cc1nc(N(C)c2ccc(OCCF)cc2)c2c(C)coc2n1 | < | 5.00 |
| Cc1nc(N(C)c2ccc(OCCF)cc2)c2ccccc2n1 | = | 5.64 |
| COc1ccc(N(C)c2ncnc3occ(C)c23)cc1 [HD-800, reference compound] | < | 5.00 |

---

// reported pKi for each item listed
ASSAY_TARGET: 5-HT3-7
EXPERIMENTAL_PROTOCOL: Affinity to brain targets (panel)
pKi: −log10 of the molar value.

| COMPOUND | pKi |
| --- | --- |
| Cc1nc(N(C)c2ccc(OCCF)cc2)c2ccccc2n1 | < 5.00 |
| COc1ccc(N(C)c2ncnc3occ(C)c23)cc1 [HD-800, reference compound] | < 5.00 |
| Cc1nc(N(C)c2ccc(OCCF)cc2)c2c(C)coc2n1 | < 5.00 |

---

ASSAY_TARGET: 5-HT2B (Homo sapiens, UniProt P41595)
MEASURED_ATTRIBUTE: Ki

| CHEMICAL_STRUCTURE | ASSAY_TARGET | ENDPOINT_VALUE |
| --- | --- | --- |
| COc1ccc(N(C)c2nc(C)nc3ccccc23)cc1 | 5-HT2B (Homo sapiens, UniProt P41595) | > 10 µM |

---

ASSAY_TARGET: 5-HT7 (Homo sapiens)
Sequence (P34969 whole entry, species assumed): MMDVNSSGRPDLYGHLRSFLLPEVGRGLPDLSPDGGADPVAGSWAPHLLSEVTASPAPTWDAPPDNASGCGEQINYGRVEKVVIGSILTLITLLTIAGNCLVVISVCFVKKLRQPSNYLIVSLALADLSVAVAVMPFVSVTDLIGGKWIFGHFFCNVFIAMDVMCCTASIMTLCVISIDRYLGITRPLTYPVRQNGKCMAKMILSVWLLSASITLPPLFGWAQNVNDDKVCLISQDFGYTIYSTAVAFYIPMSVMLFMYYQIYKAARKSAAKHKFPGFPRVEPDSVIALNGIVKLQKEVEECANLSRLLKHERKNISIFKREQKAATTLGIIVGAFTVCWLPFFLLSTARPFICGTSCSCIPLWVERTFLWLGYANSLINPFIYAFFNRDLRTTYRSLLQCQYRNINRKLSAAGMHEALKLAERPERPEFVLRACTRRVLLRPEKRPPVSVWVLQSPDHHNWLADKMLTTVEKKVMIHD

| CHEMICAL_STRUCTURE | ASSAY_TARGET | Ki |
| --- | --- | --- |
| COc1ccc(N(C)c2nc(C)nc3ccccc23)cc1 | 5-HT7 (Homo sapiens) | > 10 µM |

---

ASSAY_TARGET: UniProt:P35462
MEASURED_ATTRIBUTE: Ki

| CHEMICAL_STRUCTURE | ASSAY_TARGET | ENDPOINT_VALUE |
| --- | --- | --- |
| COc1ccc(N(C)c2nc(C)nc3ccccc23)cc1 | UniProt:P35462 | > 10 µM |

---

ASSAY_TARGET: UniProtKB P08183
Sequence (P08183 whole entry, species assumed): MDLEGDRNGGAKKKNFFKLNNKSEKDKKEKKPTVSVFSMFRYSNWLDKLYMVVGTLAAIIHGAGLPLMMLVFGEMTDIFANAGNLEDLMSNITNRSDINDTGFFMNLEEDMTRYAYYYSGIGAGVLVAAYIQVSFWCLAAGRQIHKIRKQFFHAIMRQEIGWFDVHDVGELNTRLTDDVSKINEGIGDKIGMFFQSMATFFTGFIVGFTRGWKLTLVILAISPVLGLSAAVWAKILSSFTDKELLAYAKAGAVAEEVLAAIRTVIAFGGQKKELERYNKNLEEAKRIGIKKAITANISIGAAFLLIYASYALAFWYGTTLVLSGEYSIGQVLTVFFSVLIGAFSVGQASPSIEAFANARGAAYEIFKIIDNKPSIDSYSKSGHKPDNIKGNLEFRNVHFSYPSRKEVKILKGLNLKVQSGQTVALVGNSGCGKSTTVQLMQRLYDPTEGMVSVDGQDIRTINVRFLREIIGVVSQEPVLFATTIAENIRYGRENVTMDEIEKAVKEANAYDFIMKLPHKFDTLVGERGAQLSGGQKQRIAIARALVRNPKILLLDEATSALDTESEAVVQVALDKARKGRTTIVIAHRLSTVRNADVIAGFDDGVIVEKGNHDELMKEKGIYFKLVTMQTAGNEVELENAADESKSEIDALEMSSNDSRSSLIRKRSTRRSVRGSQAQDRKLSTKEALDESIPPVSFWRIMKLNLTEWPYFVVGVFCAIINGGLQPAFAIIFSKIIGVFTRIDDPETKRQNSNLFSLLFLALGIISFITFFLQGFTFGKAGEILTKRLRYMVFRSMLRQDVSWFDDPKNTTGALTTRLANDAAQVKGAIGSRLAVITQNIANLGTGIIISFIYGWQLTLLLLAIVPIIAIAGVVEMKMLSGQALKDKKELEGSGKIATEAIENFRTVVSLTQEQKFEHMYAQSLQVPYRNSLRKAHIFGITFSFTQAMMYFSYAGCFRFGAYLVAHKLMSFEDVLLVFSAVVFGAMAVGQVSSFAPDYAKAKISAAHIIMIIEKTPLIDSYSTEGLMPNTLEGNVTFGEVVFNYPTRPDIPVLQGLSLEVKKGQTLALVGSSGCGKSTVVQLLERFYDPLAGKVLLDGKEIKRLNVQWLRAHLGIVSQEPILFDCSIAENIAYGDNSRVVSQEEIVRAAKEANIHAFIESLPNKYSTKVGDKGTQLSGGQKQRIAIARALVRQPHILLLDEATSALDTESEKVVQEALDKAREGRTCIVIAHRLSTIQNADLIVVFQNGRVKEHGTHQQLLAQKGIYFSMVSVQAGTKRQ
EXPERIMENTAL_PROTOCOL: Affinity to brain targets (panel)
Assay type: binding
ASSAY_CONDITIONS: MDR1: multidrug resistance
pKi: −log10 of the molar value.

| COMPOUND | pKi |
| --- | --- |
| Cc1nc(N(C)c2ccc(OCCF)cc2)c2c(C)coc2n1 | < 5.00 |
| COc1ccc(N(C)c2ncnc3occ(C)c23)cc1 [HD-800, reference compound] | < 5.00 |
| Cc1nc(N(C)c2ccc(OCCF)cc2)c2ccccc2n1 | < 5.00 |

---

ASSAY_TARGET: α2A-2C
EXPERIMENTAL_PROTOCOL: Affinity to brain targets (panel)

| COMPOUND | Ki |
| --- | --- |
| COc1ccc(N(C)c2ncnc3occ(C)c23)cc1 [HD-800, reference compound] | > 10 µM |
| Cc1nc(N(C)c2ccc(OCCF)cc2)c2c(C)coc2n1 [FE-HD-800] | > 10 µM |
| Cc1nc(N(C)c2ccc(OCCF)cc2)c2ccccc2n1 [FEMPC-6827] | > 10 µM |

---

ASSAY_TARGET: UniProt:P07550
Sequence (P07550 whole entry): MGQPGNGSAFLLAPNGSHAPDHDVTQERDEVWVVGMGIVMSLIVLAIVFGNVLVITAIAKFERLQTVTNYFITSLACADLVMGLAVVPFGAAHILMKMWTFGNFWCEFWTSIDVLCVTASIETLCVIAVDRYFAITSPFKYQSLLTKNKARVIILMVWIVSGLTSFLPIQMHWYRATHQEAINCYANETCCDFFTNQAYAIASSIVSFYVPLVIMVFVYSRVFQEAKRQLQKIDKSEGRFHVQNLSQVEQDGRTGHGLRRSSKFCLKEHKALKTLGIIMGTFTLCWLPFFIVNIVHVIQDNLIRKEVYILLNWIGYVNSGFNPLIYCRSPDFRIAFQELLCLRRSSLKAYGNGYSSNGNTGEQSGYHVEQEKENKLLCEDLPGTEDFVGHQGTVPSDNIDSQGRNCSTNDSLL
MEASURED_ATTRIBUTE: Ki

| COMPOUND | MEASURED_ATTRIBUTE | ENDPOINT_VALUE |
| --- | --- | --- |
| COc1ccc(N(C)c2nc(C)nc3ccccc23)cc1 [MPC-6827] | Ki | > 10 µM |

---

ASSAY_TARGET: 5-HT2C (Homo sapiens)
Sequence (P28335 33-458): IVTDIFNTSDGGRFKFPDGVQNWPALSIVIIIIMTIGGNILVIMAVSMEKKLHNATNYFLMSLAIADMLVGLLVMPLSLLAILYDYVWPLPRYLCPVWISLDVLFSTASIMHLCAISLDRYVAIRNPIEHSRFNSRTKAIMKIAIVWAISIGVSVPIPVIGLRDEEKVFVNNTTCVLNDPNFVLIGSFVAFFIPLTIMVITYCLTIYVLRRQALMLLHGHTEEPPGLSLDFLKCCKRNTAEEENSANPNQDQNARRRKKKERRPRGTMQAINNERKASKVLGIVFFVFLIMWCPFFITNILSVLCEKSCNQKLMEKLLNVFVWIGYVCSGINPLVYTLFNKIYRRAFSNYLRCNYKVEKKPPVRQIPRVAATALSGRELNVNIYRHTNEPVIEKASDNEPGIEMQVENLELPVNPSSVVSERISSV

| MOLECULE | ASSAY_TARGET | Ki |
| --- | --- | --- |
| COc1ccc(N(C)c2nc(C)nc3ccccc23)cc1 [MPC-6827] | 5-HT2C (Homo sapiens) | > 10 µM |
